B1: TPD52L2 (parent)
chain: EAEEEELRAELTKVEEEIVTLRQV

Variants of: B1
EXPERIMENTAL DETAILS: protein stability index of a GFP-peptide fusion (GPS, HEK-293T) (PSI 1-6); higher = more stable;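 further: lentivirally expressed fusions sorted by FACS into six bins by GFP to DsRed ratio, PSI derived from sequencing read proportions per bin multiplied by bin number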
CONDITION SUMMARY: c terminus: a fixed tail appended
PARAMETER: protein stability index
Reply briefly: the number, and no unit.

Fill blank: measured protein stability index of the variant `E5D` is ____.
3.91

Would you mind doing `E10L` as well?
2.96

Would you mind doing `E5I` as well?
2.98

Would you mind doing `R8H` as well?
3.91

Would you mind doing `A9D` as well?
3.93

Would you mind doing `E6Y` as well?
3.08

Would you mind doing `E3A` as well?
3.04
